The reported measurements were obtained from the supplement of paper PMC9170038.

test system: MS2 coat protein; assay: apparent KD of MS2 coat protein; designed switch direction (-1 OFF switch, 1 ON switch): -1; higher = weaker reporter binding; details: input ligand: FMN 200 uM
Decision: apparent KD of MS2 coat protein compared against 20 nM; not below it gives yes, below it gives no.

Query :: Determine whether this sequence has apparent KD of MS2 coat protein no lower than 20 nM: GGCUGCAAUGUAGGAUAUCUGCACGUUUAGUGCAGAGAAGGACAUGAGGAUCACCCAUGUAUAGUAGCUUCGGCUACAGCAGCC [ENG1-D2] (Eterna round: R96, puzzle: Exclusion NG 1)
Result :: no

Query :: Reported apparent KD of MS2 coat protein at or above 20 nM? GGUGGACAUGAGGAUCACCCAUGUGAGGAUAUCGGCUAUCUUCUCGCUGUCGGUUGCUCGAGAAGGCACAUUGU [Exclusion 1 V94] (Eterna round: R96, puzzle: Exclusion 1)
Result :: yes

Query :: Can GGCGGACAUGAGGAUCACCCAUGUCAGGAUAUUAGGCGAUCGUCGAAAGACGAUAGCCUGAGAAGGGACGCGCC [Eli x1 4.13] (Eterna round: R97, puzzle: Exclusion 1) be said to have apparent KD of MS2 coat protein at or above 20 nM?
Result :: yes

Query :: hey, is apparent KD of MS2 coat protein for this one >= 20 nM? CUGCUUUUGGUGAGGAUAUGCGGUAGCUGGGUACCGCAGAAGGCACAUGAGGAUCACCCAUGUGAUCUGAAAGC [Eternabot (L1) Solution 5] (Eterna round: R97, puzzle: Brourd's mod of Exclusion 4)
Result :: yes

Query :: Would you say GCGGACUCGAUCGUGAGAUCGGAGACAUGAGGAUCACCCAUGUAGGAUAUCGAUUGCUUUGCAGUCGAGAAGGGCGUGGUCCGC [JL denovo 17] (Eterna round: R96, puzzle: Exclusion NG 3) shows apparent KD of MS2 coat protein at minimum 20 nM?
Result :: yes

====

tested on: K4 kissing-loop RNA reporter; test: apparent KD of K4 kissing-loop reporter; higher = weaker reporter binding; conditions: Eterna round: R107; input ligand: none
Assignment: determine reported apparent KD of K4 kissing-loop reporter for the given sequences.

Query :: Give apparent KD of K4 kissing-loop reporter for UUUAGGAACUGAGGAUAUUCGAAGAAAUAUAGUGAUGUUAUAUAAGGAGGAGGAGGGAGGGAGGAAGGAGAAGGCAGAAGAGGAG [ExFMNB.E] tested on K4 kissing-loop RNA reporter.
Result :: 246 nM

Query :: Supply apparent KD of K4 kissing-loop reporter measured with K4 kissing-loop RNA reporter for CGCAGUGAUGUUGCGAGUAGCUACAGGGAAGGAGCGCUUUAGUAAGCAGGUAGGUCGCCCACGCAGUGAUGUUGCGUCAUAGGGU [Exclusion Arginine A GF 19] .
Result :: 108 nM

Query :: Determine reported apparent KD of K4 kissing-loop reporter for CGGAUGUAGUGAUGUUAUAUAAGAAGUAGACGAGGACCGGUACGGCCGCCACUCGAAACGGCUACUAGCGCGUUGCGAGGUGUGC [ExTryptoA.Ch] ; test system: K4 kissing-loop RNA reporter.
Result :: 549 nM

====

tested on: K4 kissing-loop RNA reporter; test: apparent KD of K4 kissing-loop reporter; higher = weaker reporter binding; conditions: Eterna round: R107; input ligand: tryptophan 2.4 mM;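 also: bound reporter read as fluorescence of individual clusters on recovered sequencing chips by microscopy, with normalized cluster intensities fitted with a binding model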
Answer no (0) if apparent KD of K4 kissing-loop reporter is under 200 nM, and yes (1) if it is 200 nM or more.

Query :: Given the entry AGAGUUAAUUAGUCAUUUUUCACAUUAAGUCAGGAUAUCGUAUUUUCGAGAAGGGACACAUGCUAGUGAUGUUAGCUAUUUCUCA [JR_Nu_ExcFMNA_Sub021] , answer whether its apparent KD of K4 kissing-loop reporter meets or surpasses 200 nM.
Result :: no (0)

Query :: Confirm if apparent KD of K4 kissing-loop reporter reported for the sequence GUGGUACAGGCGGCCGCCACUAGUGAUGUUAGUGUUAGAAGAUAUAGUAUAUAUCGGCAUUUGUUUAGGACCGGGCCUGGUGGAG [aqzacmullin] is 200 nM or above.
Result :: no (0)

Query :: apparent KD of K4 kissing-loop reporter >= 200 nM for GCCUGGGCCCGAAGGAGCGCCGUGACAGGUUACUGCAUUGAGCAGUGAUGUUGCUCAAUCUGGCAGGUAGGUCGCGGGCCCAGGC ?
Result :: no (0)

Query :: Exam item: decide whether the reported apparent KD of K4 kissing-loop reporter for CCUUCCGACACGGCCGCCACUAAUUUCAUCAGAUUGCCCGGAUUUCCAAGAUAGUGAUGUUGUACUAGGACCGGGUGUCAGGUCG [theeternabot_exclusion_KL_Trp_B_16] is at least 200 nM.
Result :: yes (1)

Query :: Assess whether reported apparent KD of K4 kissing-loop reporter for AACUCUCAGGCACGCGAGUGAUGUUCGCGGCGAGGACCGGUACGGCCGCCACUCGCGCCUGAGAGAGGUUAUCAAAGAUAGCCAA [whbob_SS_tryp_A] sits at 200 nM or higher.
Result :: yes (1)
